Let's look at some compounds and their measured IC50.
Target: Alpha amylase (Homo sapiens, UniProt P0DUB6)
Sequence (P0DUB6 whole entry): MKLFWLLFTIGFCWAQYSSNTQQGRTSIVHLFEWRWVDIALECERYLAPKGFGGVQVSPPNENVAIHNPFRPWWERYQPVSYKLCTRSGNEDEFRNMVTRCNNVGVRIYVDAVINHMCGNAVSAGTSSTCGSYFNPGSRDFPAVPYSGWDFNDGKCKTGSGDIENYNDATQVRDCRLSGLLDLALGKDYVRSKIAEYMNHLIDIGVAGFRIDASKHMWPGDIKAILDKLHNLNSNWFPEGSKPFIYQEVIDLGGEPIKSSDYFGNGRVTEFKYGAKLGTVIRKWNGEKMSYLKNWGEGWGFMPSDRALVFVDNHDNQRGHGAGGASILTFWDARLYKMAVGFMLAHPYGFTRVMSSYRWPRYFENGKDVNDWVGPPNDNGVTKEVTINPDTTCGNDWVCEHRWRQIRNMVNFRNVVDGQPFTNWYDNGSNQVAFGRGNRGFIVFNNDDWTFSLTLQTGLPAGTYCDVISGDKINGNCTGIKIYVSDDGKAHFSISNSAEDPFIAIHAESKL
Experiment: Inhibition of alpha-amylase (unknown origin)

Cc1ccc(S(=O)(=O)Oc2ccc(/C=N/NC(=O)c3ccc(O)cc3)cc2)cc1 ... > 200 µM
Cc1ccc(S(=O)(=O)Oc2ccc(/C=N/NC(=O)c3nc4ccccc4[nH]3)cc2)cc1 ... > 200 µM
Cc1ccc(S(=O)(=O)Oc2ccc(/C=N/NC(=O)Cc3ccccn3)cc2)cc1 ... > 200 µM
O=C(N/N=C/c1coc2ccccc2c1=O)c1nc2ccccc2[nH]1 ... > 200 µM
O=C(N/N=C/c1coc2ccccc2c1=O)c1cc2ccccc2[nH]1 ... 128.1 µM
O=C(N/N=C/c1coc2ccc(O)cc2c1=O)c1cc2ccccc2[nH]1 ... 151.46 µM

Next:
The recorded IC50 for Cc1ccc2occ(/C=N/NC(=O)c3cc4ccccc4[nH]3)c(=O)c2c1 is > 200 µM

Cited source: ChEMBL document CHEMBL5113551
